Target entity: murine SR-BI (Mus musculus)
Construct: expressed in transfected cells; host or cells: ldlA-7 (LDL receptor deficient Chinese hamster ovary cells)
Sequence (Q61009 whole entry): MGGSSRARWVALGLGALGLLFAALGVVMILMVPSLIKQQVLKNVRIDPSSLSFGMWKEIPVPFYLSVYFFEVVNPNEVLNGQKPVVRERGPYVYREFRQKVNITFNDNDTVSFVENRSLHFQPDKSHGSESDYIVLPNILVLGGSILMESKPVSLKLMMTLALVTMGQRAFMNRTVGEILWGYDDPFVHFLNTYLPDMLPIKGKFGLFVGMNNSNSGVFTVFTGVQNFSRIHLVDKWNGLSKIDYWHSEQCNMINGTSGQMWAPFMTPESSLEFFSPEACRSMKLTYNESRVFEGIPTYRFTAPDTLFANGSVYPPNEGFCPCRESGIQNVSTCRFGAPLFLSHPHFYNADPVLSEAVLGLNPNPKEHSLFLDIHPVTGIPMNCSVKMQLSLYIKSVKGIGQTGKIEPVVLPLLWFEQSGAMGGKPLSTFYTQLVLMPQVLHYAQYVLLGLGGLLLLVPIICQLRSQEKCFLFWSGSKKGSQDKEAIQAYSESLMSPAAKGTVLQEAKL
Assay summary: Uptake of DiI from DiI-HDL by ldlA[mSR-BI] cells (high throughput screen and concentration dependence)
Format: cell-based
Condition set: Test 1
Readout kind: ENDOHDL Test 1
Give the figure by itself; no unit, no explanation.

Known ENDOHDL Test 1 results, listed for orientation:
CC(C)c1ccc(NC(=O)/C=C/c2cccc([N+](=O)[O-])c2)cc1 = 0.65
CCCCN1CCC(Cl)(c2ccccc2)C(C(=O)c2ccccc2)C1 (stereo not drawn) = 1.28
CC(C)C(=O)NC(NC(=S)Nc1cccc(C(=O)Cl)c1)C(Cl)(Cl)Cl (stereo not drawn) = 1.26
CCN1/C(=C/c2sc3ccccc3[n+]2CC)Sc2ccccc21.Cc1ccc(S(=O)(=O)[O-])cc1 = 0.57
COc1ccc(NC(=O)Oc2cc(C(C)(C)C)cc(C(C)(C)C)c2)cc1Cl = 0.71
CCOC(=O)c1c(/N=C/c2ccccc2[N+](=O)[O-])sc2c1CCCC2 = 0.33
Nc1c(C(=O)c2ccc(Br)cc2)sc2nc(-c3ccccc3)c3c(c12)CCCC3 = 0.62
Cc1ccc2c(c1)/C(=C/c1ccc([N+](=O)[O-])cc1)c1cccnc1-2 = 0.56
COc1ccc([N+](=O)[O-])cc1NC(=S)NC(NC(=O)C(c1ccccc1)c1ccccc1)C(Cl)(Cl)Cl (stereo not drawn) = 0.52
CCNc1ccc(N)c(C)c1C.O=S(=O)(O)O = 0.71

Give the measured ENDOHDL Test 1 of Cc1c([N+](=O)[O-])cc(C(=O)Nc2cccc(-c3nc4ccccc4o3)c2)cc1[N+](=O)[O-] .
0.59

What value of ENDOHDL Test 1 has been recorded for this entry: CC[n+]1c(/C=C/SC)ccc2ccccc21
0.56

For the compound NS(=O)(=O)c1ccc(N=N/C(=N/Nc2ccc(S(N)(=O)=O)cc2)c2ccccc2)cc1 , what ENDOHDL Test 1 is on record?
0.55

May I ask what ENDOHDL Test 1 has been recorded for CC(F)(F)c1cccc(NC(=O)c2sc(-c3ccccc3)nc2-c2ccc([N+](=O)[O-])cc2)c1 ?
0.56

Query (compound): C=CCN1C(=O)[C@H]2Cc3c([nH]c4ccccc34)[C@@H](c3ccc4c(c3)OCO4)N2C1=S ; field requested: ENDOHDL Test 1
0.54

Dear colleague, I am looking for the recorded ENDOHDL Test 1 of the following compound: O=C(CC1=CCCCC1)Nc1cc([N+](=O)[O-])ccc1O
1.32

# ENDOHDL Test 1 lookup, item O=C(CSC1=NCCN1)Nc1ccccc1
0.55

ENDOHDL Test 1 lookup needed for COc1ccc(N2C(=O)CC(N3CCCCC3)C2=O)cc1 (stereo not drawn) , thanks.
1.25

Tell me the measured ENDOHDL Test 1 of CCCCCCC1CCC/C1=N\NC(N)=S (stereo not drawn) [MIT 9952-185] , please.
0.53

Reported ENDOHDL Test 1, compound O=C(Nc1cccc(C(F)(F)F)c1)c1cccc(C(=O)Nc2cccc(C(F)(F)F)c2)n1 : ____
0.56
